Measured values drawn from the supplement of paper PMC12370961 for this set.

# Tested on: CDS-ZH002 direct (CIC-DUX4 sarcoma cells right after isolation)
# ASSAY EXPLANATION: differential drug sensitivity score (dDSS) relative to sarcoma reference cohort mean DSS (DSS units (0-100 scale difference)); higher = more selective sensitivity than reference sarcomas
# MEASUREMENT PARAMETERS: exposure time: 72 h; concentration range: 10-10000 nM
Exercise: state measured differential drug sensitivity score for each of the compounds provided.

>  <COMPOUND>
CN(C)C/C=C/C(=O)Nc1cc2c(Nc3ccc(F)c(Cl)c3)ncnc2cc1O[C@H]1CCOC1

>  <RECORDED VALUE>
-4.7

$$$$
>  <COMPOUND>
O=C(Cc1ccc(-c2ccc(OCCN3CCOCC3)cc2)cn1)NCc1ccccc1

>  <RECORDED VALUE>
1.7

$$$$
>  <COMPOUND>
Clc1ccc(NN=C(c2ccccc2)c2ccccn2)nc1

>  <RECORDED VALUE>
-4.8

$$$$

Need differential drug sensitivity score for each of these compounds.
1. CC(C)C[C@H](NC(=O)[C@@H](NC(=O)c1cccc(-c2ccccc2)n1)[C@@H](C)O)B(O)O
2. CNC(=O)c1cc(Oc2ccc(NC(=O)Nc3ccc(Cl)c(C(F)(F)F)c3)cc2)ccn1
3. CC#CC(=O)N1CCC[C@H]1c1nc(-c2ccc(C(=O)Nc3ccccn3)cc2)c2c(N)nccn12
4. Cc1ccc(C(=O)Nc2cccc(C(F)(F)F)c2)cc1Nc1nc(-c2cccnc2)nc2c1cnn2C
5. CCC1=C[C@@H]2CN(C1)Cc1c([nH]c3ccccc13)[C@@](C(=O)OC)(c1cc3c(cc1OC)N(C)[C@H]1[C@@](O)(C(=O)OC)[C@H](OC(C)=O)[C@]4(CC)C=CCN5CC[C@]31[C@@H]54)C2

[6.7, -0.3, -3.2, -1.6, 4.3]

Need differential drug sensitivity score for each of these compounds.
1. O=C(NCc1cccc(O)c1)Nc1nc(-c2ccncc2)cs1
2. CC1(COc2ccc3c(c2)ncn3-c2ccc3cccc(N4CCC(N)CC4)c3n2)COC1
3. O=C(NOC[C@H](O)CO)c1ccc(F)c(F)c1Nc1ccc(I)cc1F
4. CN1CCC(COc2cnc(-c3cccc(Cn4nc(-c5cccc(C#N)c5)ccc4=O)c3)nc2)CC1
5. COc1ccc(C(=O)CC2(O)C(=O)Nc3c(Cl)ccc(Cl)c32)cc1 (stereo unspecified)
6. CN1CC[C@@H](NC(=O)Nc2ccc(C#N)cc2)C[C@@H]1c1nc2ccccc2[nH]1
7. CN1CCN(CCOc2cc(OC3CCOCC3)c3c(Nc4c(Cl)ccc5c4OCO5)ncnc3c2)CC1
8. CN1C(=O)N[C@H](Cc2c[nH]c3c(Cl)cccc23)C1=O

-1.2
-1.7
-2.9
2.3
-2
-0.8
4.3
-2.5

====

# Test system: CDS-ZH002 direct
# ASSAY EXPLANATION: differential drug sensitivity score (dDSS) relative to sarcoma reference cohort mean DSS (DSS units (0-100 scale difference)); higher = more selective sensitivity than reference sarcomas
# MEASUREMENT PARAMETERS: exposure time: 72 h; concentration range: 10-10000 nM
READOUT NAME: differential drug sensitivity score

As a guide, the following entries are already answered.
>  <MOLECULE SMILES>
CO[C@H]1C[C@@H]2CC[C@@H](C)[C@@](O)(O2)C(=O)C(=O)N2CCCC[C@H]2C(=O)O[C@H]([C@H](C)C[C@@H]2CC[C@@H](O)[C@H](OC)C2)CC(=O)[C@H](C)/C=C(\C)[C@@H](O)[C@@H](OC)C(=O)[C@H](C)C[C@H](C)/C=C/C=C/C=C/1C

>  <READOUT NAME>
differential drug sensitivity score

>  <RECORDED VALUE>
-2.2

$$$$
>  <MOLECULE SMILES>
Cc1c(-c2ccc(N3CCc4cccc(C(=O)Nc5nc6ccccc6s5)c4C3)nc2C(=O)O)cnn1CC12CC3CC(CC(C3)C1)C2

>  <READOUT NAME>
differential drug sensitivity score

>  <RECORDED VALUE>
2.8

$$$$
>  <MOLECULE SMILES>
CC[C@]1(O)C[C@H]2CN(CCc3c([nH]c4ccccc34)[C@@](C(=O)OC)(c3cc4c(cc3OC)N(C=O)[C@H]3[C@@](O)(C(=O)OC)[C@H](OC(C)=O)[C@]5(CC)C=CCN6CC[C@]43[C@@H]65)C2)C1

>  <READOUT NAME>
differential drug sensitivity score

>  <RECORDED VALUE>
13.4

$$$$
>  <MOLECULE SMILES>
CCN(CC)Cc1ccc2cc(COC(=O)Nc3ccc(C(=O)NO)cc3)ccc2c1

>  <READOUT NAME>
differential drug sensitivity score

>  <RECORDED VALUE>
1.5

$$$$
>  <MOLECULE SMILES>
CCCN(CCC)C(=O)C1=Cc2ccc(-c3ccc(C(=O)N4CCCC4)cc3)cc2N=C(N)C1

>  <READOUT NAME>
differential drug sensitivity score

>  <RECORDED VALUE>
2.1

$$$$
>  <MOLECULE SMILES>
O=c1ncn2nc(Sc3ccc(F)cc3F)ccc2c1-c1c(Cl)cccc1Cl

>  <READOUT NAME>
differential drug sensitivity score

>  <RECORDED VALUE>
1

$$$$
>  <MOLECULE SMILES>
O=C(Nc1c[nH]nc1-c1nc2ccc(CN3CCOCC3)cc2[nH]1)NC1CC1

>  <READOUT NAME>
differential drug sensitivity score

>  <RECORDED VALUE>
-0.7

$$$$
>  <MOLECULE SMILES>
Nc1nc(F)nc2c1ncn2[C@@H]1O[C@H](CO)[C@@H](O)[C@@H]1O

>  <READOUT NAME>
differential drug sensitivity score

>  <RECORDED VALUE>
2.5

$$$$
>  <MOLECULE SMILES>
O=C(c1cc(Cc2n[nH]c(=O)c3ccccc23)ccc1F)N1CCN(C(=O)C2CC2)CC1

>  <READOUT NAME>
differential drug sensitivity score

>  <RECORDED VALUE>
-5.3

$$$$
>  <MOLECULE SMILES>
NS(=O)(=O)NCCNc1nonc1/C(=N/O)Nc1ccc(F)c(Br)c1

>  <READOUT NAME>
differential drug sensitivity score

>  <RECORDED VALUE>
-0.7

$$$$

Need differential drug sensitivity score for each of these molecules.
1. COCC[n+]1c2c(n(Cc3cnccn3)c1C)C(=O)c1ccccc1C2=O
2. C[C@@H]1C[C@H]2[C@@H]3CCC4=CC(=O)C=C[C@]4(C)[C@@]3(F)[C@@H](O)C[C@]2(C)[C@@]1(O)C(=O)CO
3. Cc1cc(Nc2ncc(Cl)c(Nc3ccccc3S(=O)(=O)C(C)C)n2)c(OC(C)C)cc1C1CCNCC1
4. C[C@@H]1CCN(C(=O)CC#N)C[C@@H]1N(C)c1ncnc2[nH]ccc12

1. -0.4
2. 0.6
3. -0.1
4. 0.3
